Value source: PubChem BioAssay AID2060599

# Test system: 817829-284-R-J1-PDC complex spheroids, viability;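 further: spheroids exposed to the agents for seven days before readout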
# Experimental protocol: Anticancer human tumor 817829-284-R-J1-PDC patient-derived colon adenocarcinoma cell line growth inhibition [CLK]; active means viability on the fitted dose curve at most 10% of control; inactive means the rest
# Assay context: second compound 3.16 µM; first compound 1 µM
// classify into active, inactive

IN: Any idea what this test logged for COC1C=CCC(C)C(C)S(=O)(=O)NC(=O)c2ccc3c(c2)N(CC2CCC21)CC1(CCCc2cc(Cl)ccc21)CO3 (stereo not given) + CN1CCN(c2cc(C(=O)Nc3cc4cc(-c5cnn(C)c5)ccc4cn3)ccn2)CC1 ?
OUT: active

IN: Next up: C=CC(=O)N1CCN(c2nc(=O)n(-c3c(C)ccnc3C(C)C)c3nc(-c4c(O)cccc4F)c(F)cc23)C(C)C1 (stereo not given) + CNC(=O)c1ccc(Nc2nc(OC3CCCC3)c3c(-c4ccc5nc(C)oc5c4)c[nH]c3n2)c(OC)c1
OUT: inactive

IN: Next up: C=C(F)C(=O)N1CCN(c2nc(OCC3CCCN3C)nc3c2CCN(c2cccc4cccc(Cl)c24)C3)CC1CC#N (stereo not given) + CN1CCN(c2cc(C(=O)Nc3cc4cc(-c5cnn(C)c5)ccc4cn3)ccn2)CC1
OUT: active

IN: Next up: Nc1ccccc1NC(=O)c1ccc(CNC(=O)OCc2cccnc2)cc1 + CN1CCN(c2cc(C(=O)Nc3cc4cc(-c5cnn(C)c5)ccc4cn3)ccn2)CC1
OUT: active

Now for a further compound.
IN: Any idea what this test logged for C#Cc1c(F)ccc2cc(O)cc(-c3ncc4c(N5CC6CCC(C5)N6)nc(OCC56CCCN5CC(F)C6)nc4c3F)c12 (stereo not given) + CNC(=O)c1ccc(Nc2nc(OC3CCCC3)c3c(-c4ccc5nc(C)oc5c4)c[nH]c3n2)c(OC)c1 ?
OUT: inactive
